Data credit: PubChem BioAssay AID1745844

- System: rodent lifetime carcinogenesis bioassay, tumor incidence TD50
- run description: carcinogenic potency in animals, long-term in vivo studies, CPDB compilation (AID 1745844)
- experimental conditions: rat; strain Fischer 344; males; by gavage; site: any site (literature study); lesion: several types; types named in the paper; dosed 38 weeks; study length 104 weeks
metric name: TD50 (mg/kg/day)
Give bare numbers, in mg/kg/day.

Query block: Give the reported TD50 for this compound. O=C1CCc2ccccc2O1
Result block: 1370

---

- Tested on: rodent lifetime carcinogenesis bioassay, tumor incidence TD50
- run description: carcinogenic potency in animals, long-term in vivo studies, CPDB compilation (AID 1745844)
- experimental conditions: mouse; strain B6C3F1; females; by gavage; site: forestomach; lesion: squamous-cell papilloma; dosed 104 weeks; study length 104 weeks
metric name: TD50

Query block: Give the reported TD50 for this molecule. C/C=C/C=C/C=O
Result block: 165 mg/kg/day
